Source: PubChem BioAssay (NCI)

System: DU-145 prostate
ASSAY_PROCEDURE: NCI-60 one-dose screen, 48 h (100 = growth as untreated, 0 = no growth, -100 = all killed)
MEASUREMENT_CONDITIONS: 10 µM unless noted
The panel holds about 83,000 compounds, 20% with a hit somewhere; the sample as a whole holds those more often.
Criterion: growth meeting or surpassing 30%. Met: y. Not met: n.

Look over these answered cases.
MOLECULE | TEST_SYSTEM | GROUP_LABEL
O=C(/C=C1\C(=O)N(Cc2ccc([N+](=O)[O-])cc2)c2ccccc21)c1ccc(OCCN2CCCC2)cc1 | DU-145 prostate | y
COc1cc(-c2nn(-c3ccc(NC(=O)c4ccc(Cl)c(Cl)c4)cc3)cc2-c2ccncc2)ccc1Cl | DU-145 prostate | y

# bool: growth of "N=C(N)N=Nc1ccc(NN=C(N)N)cc1" >= 30%
y

# bool: growth of "CCOC(=O)/C(C#N)=C(/CC)OCC" >= 30%
y

# bool: growth of "Cc1cc(CSc2ccc(Cl)cc2)ccc1N" >= 30%
y

# bool: growth of "Cc1ncc(C(=O)Nc2ccc(CN3CCN(C)CC3)c(C(F)(F)F)c2)cc1C#Cc1c(N)ncc2ccc(F)cc12" >= 30%
n

# bool: growth of "CC(C)CSc1nc(-c2ccc(F)cc2)c(C#N)c(N2CCCCC2)n1" >= 30%
y

# bool: growth of "COc1cc(-c2nn(-c3ccc(NC(=O)Nc4ccc(Cl)c(C(F)(F)F)c4)cc3)cc2-c2ccncc2)ccc1Cl" >= 30%
y

# bool: growth of "COc1cc2c(cc1OC)C(Cc1cc(OC)c(OC)cc1[N+](=O)[O-])=NCC2" >= 30%
y

# bool: growth of "CCCCCCCCCC[N+](C)(C)C" >= 30%
y

# bool: growth of "CC1(C)Oc2cc3oc(=O)ccc3cc2C[C@@H]1OCCOS(=O)(=O)c1ccc(C#N)cc1" >= 30%
y

###

System: SK-MEL-28 melanoma
ASSAY_PROCEDURE: NCI-60 one-dose screen, 48 h (100 = growth as untreated, 0 = no growth, -100 = all killed)
MEASUREMENT_CONDITIONS: 10 µM unless noted
The panel holds about 83,000 compounds, 20% with a hit somewhere; the sample as a whole holds those more often. Calls of active or inactive are those of the source. How the source made its calls: active means growth percent below 10; inactive means the rest.
ASSAY_READOUT: growth

COMPOUND | growth
CC(C)OC(=O)Nn1cnc2ccccc21 | 128% (inactive)

Give measured growth for every item shown.
1. Cc1ccc(S(=O)(=O)Nc2cccc(Cn3c(=O)[nH]c4ccc(Oc5ncccn5)cc4c3=O)c2)cc1
2. O=C1C(Cl)=C(SC2=NCCN2)C(=O)c2ccccc21
3. COc1cccc(Cn2cc3c(c2)-c2oncc2CC3)c1
4. O=CN/N=C/c1ccc(Cl)c([N+](=O)[O-])c1
5. O=[N+]([O-])c1ccc(-c2ncc(-c3ccc(O)cc3O)[nH]2)cc1
6. CC(C)(C)C(=O)CCCCCCCC/C=C/CCCC(O)c1ccco1 (stereo unspecified)

1. 66.7% (inactive)
2. 78.9% (inactive)
3. 51.9% (inactive)
4. 43% (inactive)
5. 108% (inactive)
6. 106% (inactive)

Give measured growth for every item shown.
1. N=C(N)N=Nc1ccc(NN=C(N)N)cc1
2. O=C(C(=O)N1CCOCC1)c1ccc(O[C@H]2O[C@H](CO)[C@@H](O)[C@H](O)[C@@H]2O)cc1
3. O=c1c(N=Nc2nccs2)c(-c2ccccc2)[nH]n1-c1nc(-c2ccccc2)cs1
4. Cc1c([C@H](C(Cl)Cl)[C@H](O)[C@H]2C[C@H](C)C(=O)O2)ccc2c1C(=O)[C@H]1[C@H]2C[C@@H](Br)[C@@]23O[C@@H](CO[C@H]2O)CC13C (stereo partly specified)
5. COc1ccc(C2=C/C(=C\c3ccc(Cl)cc3)C(=O)NN2C(=S)NN)cc1
6. NNC(=O)CNc1ccc2ccccc2c1

["103% (inactive)", "117% (inactive)", "47.1% (inactive)", "47.6% (inactive)", "113% (inactive)", "125% (inactive)"]

Give measured growth for every item shown.
1. CC(=O)Nc1ccc(C(=O)/C=C/c2ccc(N(C)C)cc2)cc1
2. CC[C@H](Nc1ncnc2nc[nH]c12)c1nc2cccc(NCc3ccc(C(=O)NO)nc3)c2c(=O)n1-c1ccccc1
3. c1ccc(C(=NNc2nc3ccccc3o2)c2ccccn2)nc1
4. Cc1c(Cc2ccccc2)c(=O)oc2c(C)c(OCC(=O)n3nc(C#N)cc3N)ccc12

108% (inactive)
57.6% (inactive)
25.2% (inactive)
106% (inactive)

###

Test system: HCT-116 colon
ASSAY_PROCEDURE: NCI-60 one-dose screen, 48 h
MEASUREMENT_CONDITIONS: 10 µM unless noted
The panel holds about 83,000 compounds, 20% with a hit somewhere; the sample as a whole holds those more often. The source made the active and inactive calls. Rule for the calls: active = growth percent below 10; inactive = the rest.
Respond with a class label; see active, inactive

SMI | GROUP_LABEL
N#Cc1c2cccnc2c2nnc3cc(Cl)c(Cl)cc3n12 | active
COc1cc2cn3c4ccc(O)cc4[nH]c(=O)c3c2cc1OC | active
Cc1ccc2c(c1)C(=O)CCS2 | inactive
COc1ccc(/C(=C(\c2ccccc2)[N+](=O)[O-])c2ccc(OCCN3CCCC3)cc2)cc1 | inactive
COc1cc2c(/C=C3\C(=O)Nc4ccc(Br)cc43)c(Cl)n(C)c2cc1C | active

Now take the following compound into account.
Lab log entry: "CCCC(=O)NNc1[nH]c(-c2ccc(OC)cc2)cc1C(=O)OCC" — outcome as called in the assay?
inactive

###

Tested on: UO-31 renal
ASSAY_PROCEDURE: NCI-60 one-dose screen, 48 h (100 = growth as untreated, 0 = no growth, -100 = all killed)
MEASUREMENT_CONDITIONS: 10 µM unless noted
About 83,000 compounds went through this panel and 20% of them were active in at least one assay; those are over-represented in the sample as a whole. Calls of active or inactive are those of the source. Rule for the calls: active = growth percent below 10; inactive = the rest.
ASSAY_READOUT: growth

Worked examples follow.
COMPOUND | growth
COc1cc(-c2c3c(cn2CCN2CCCCC2)-c2oncc2CC3)cc(OC)c1OC | 80.2% (inactive)
Cc1cc(CSc2ccc(Cl)cc2)ccc1N | 29.4% (inactive)
COc1cccc(-c2cc(-c3cc4ccccc4oc3=O)nc(N)n2)c1 | 55.8% (inactive)
CCCCn1c(Cc2ccc(OC)cc2)nc2cc(OC)c(OC)cc2c1=O | 74.7% (inactive)
CCOC(=O)CSSCC(=O)OCC | 100% (inactive)

Give measured growth for every item shown.
1. C/C=C/C/C=C/[C@H](C)C[C@H](O)[C@@H]1C[C@@H]2O[C@H]2/C=C/[C@H](O)[C@@H](O)/C=C/C[C@H](C)CC(=O)O1
2. CC(=O)Nc1nc(C)c(C(=O)NNS(=O)(=O)c2ccccc2)s1

1: 56.9% (inactive); 2: 91.8% (inactive)

Give measured growth for every item shown.
1. COc1ccc(/C=C/C(=O)/C=C/c2cc3ccccc3[nH]c2=O)cc1
2. C/C(=C\c1ccc2ccccc2c1)[N+](=O)[O-]
3. CCCC(C)c1cc(Cc2cc(Cl)cc(Cl)c2O)c(O)c(Cc2cc(Cl)cc(Cl)c2O)c1 (stereo not given)

1: 94.4% (inactive); 2: -80.1% (active); 3: 6.1% (active)

###

System: T-47D breast
ASSAY_PROCEDURE: NCI-60 one-dose screen, 48 h
MEASUREMENT_CONDITIONS: 10 µM unless noted
Experimental: Growth inhibition of the T-47D human tumor cell line is measured as a screen for anti-cancer activity. Cells are grown in 96 well plates and exposed to the test compound for 48 hours. Compounds are tested at a single concentration, which is 10^-5 M for most compounds. The reported endpoint is percent growth (GI% or GIPRCNT), where numbers from 0 - 100% represent growth inhibition, and numbers from -100% - 0 represent cell death. For example, a value of 40 represents 60% growth inhibition. […]
This is part of a sample that, as a whole, favours compounds with a hit. Of some 83,000 tested, about 20% had one in any assay. Calls of active or inactive are those of the source. How the source made its calls: active means growth percent below 10; inactive means the rest.
Respond with a class label; see yes for active, no for inactive

MOLECULE | GROUP_LABEL
Nc1nc2c(c3cnccc13)C(c1cccc(Br)c1)Cc1cnccc1-2 (configuration not stated) | no
O=C(O)COc1ccc([N+](=O)[O-])cc1Cl | no
C=CCSc1nnc(COc2ccc3c(C)c(Cc4ccccc4)c(=O)oc3c2C)o1 | no
O=C(N/N=C\c1ccc(Cl)cc1)C(=O)N/N=C\c1ccc(Cl)cc1 | no

Lab log entry: "O=C(N/N=C/c1ccccc1Cl)c1cccc2ccccc12" — outcome as called in the assay?
no

Lab log entry: "CCOc1nc(-c2ccccc2)cc2c(O)c(C(=O)N/N=C/c3ccccc3O)[nH]c(=O)c12" — outcome as called in the assay?
no

Lab log entry: "c1ccc(-c2cn3ccnc3c(-c3ccc4ncn(C5CCCCC5)c4c3)n2)cc1" — outcome as called in the assay?
yes

Lab log entry: "COc1ccc(Cn2cc3c(c2-c2ccc(O)cc2)CCc2cnoc2-3)cc1" — outcome as called in the assay?
no

Lab log entry: "COCn1c(C(=O)OC)cc2oc(/C=C3/SC(=S)N(N)C3=O)cc21" — outcome as called in the assay?
no
